- target.system: Cytochrome P450 2D6 (Homo sapiens)
- assay.text: Cytochrome panel assay with activity outcomes
- condition.summary: recombinant CYP, pro-luciferin dealkylation, luminescence, p450-cyp2d6; series mostly up to 57.1 µM
The campaign covered roughly 16,000 compounds. About 2,600 (16%) were called active. Roughly 20% stayed inconclusive and do not appear here. The call rests on the fitted dose curve; in most records, active means well fitted curve in the direction sought with a large enough effect; inconclusive means small, poorly fitted or top-dose-only effect, or effect the other way; inactive means no such curve, though single readings can be large or run the other way. These entries were drawn from the full list.
Pick from T = active, F = inactive when you respond.

Use these answered entries as a reference point.
S=C1N[C@H](c2ccccc2)N[C@H](c2ccccc2)S1 T
CCCCNS(=O)(=O)c1ccc(OC)c(Cl)c1Cl F
Cc1noc(N)c1C(=O)Nc1ccc(F)cc1 F
CC(C)(CO)Cc1cc(C(C)(C)C)c(O)c(C(C)(C)C)c1 F
O=C(Nc1ccccc1)N1CC2(CCN(C(=O)c3ccco3)CC2)C1 F

Problem: Per the records of this test, what outcome belongs to O=C(c1ccco1)N1CCC2(CCN(Cc3nccs3)CC2)CC1 ?
Result: T

Problem: Call for entry C=CC(C)(C)c1[nH]c2ccccc2c1C1=C(O)C(=O)C(c2c[nH]c3c(CC=C(C)C)cccc23)=C(O)C1=O :
Result: T

Problem: Assay outcome for O=C(c1ccco1)N1CCC2(CCN(Cc3ccccc3)CC2)CC1 : what was it?
Result: T

Problem: Recorded test outcome, item Cn1c(=O)cc(OCC(=O)NCc2cccnc2)c2ccccc21
Result: F

Problem: Hi team, can someone confirm the assay call for NCCCCCCCCCCNS(=O)(=O)c1cccc2c(Cl)cccc12 ?
Result: T

Problem: Test call, this compound: O=c1c(-c2ccccc2)c(O)c2cccc3c2n1CCC3
Result: F

Problem: Could you kindly confirm the outcome this assay logged for NC(=O)CN1CCN(c2nc(-c3ccc(F)cc3)cs2)CC1 ?
Result: F

Problem: // outcome(item) with item = COc1ccc(NC(=O)N2CC3(CCN(C(=O)c4ccco4)CC3)C2)cc1
Result: F

Problem: Per the records of this test, what outcome belongs to CC(C)CCNC(=S)NC1CCCC1 ?
Result: F

###

- target.system: Cytochrome P450 2D6 (Homo sapiens)
- assay.text: Cytochrome panel assay with activity outcomes; on activity, negative = inhibition: on the % scale 0 is the no-effect control and ±100 the full control effect
- condition.summary: recombinant CYP, pro-luciferin dealkylation, luminescence, p450-cyp2d6; series mostly up to 57.1 µM
Hit rate of the full screen: of about 16,000 compounds, about 2,600 (16%) were called active. Inconclusive results (about 20%) are left out. A selection follows.
value.kind: activity, negative = inhibition

CC/C=C\CC[C@H](O)C1=CCCCC1=O 0.601% [at 11.4 µM] (inactive)
CC(C)=NNc1ncnc2nc[nH]c12 12.8% [at 11.4 µM] (inactive)
CC/C=C\CC[C@H](OC(=O)c1ccc(Br)cc1)C1=CCCCC1=O -1.66% [at 11.4 µM] (inactive)
CC(C)(C)N1C(=O)[C@H]2[C@@H]3[C@H](O)[C@H](O)CC(=O)[C@H]3CC[C@H]2C1=O 7.18% [at 11.4 µM] (inactive)
NN(CC(=O)O)CC(=O)O -0.968% [at 11.4 µM] (inactive)
Cn1c(N)nc2c(nc(OCc3ccccc3)n2[C@@H]2O[C@H](CO)[C@@H](O)[C@@H]2O)c1=O 9.24% [at 11.4 µM] (inactive)
N=C1CCC[C@@H]1C(=S)SCCC(N)=O 0.37% [at 11.4 µM] (inactive)
CN(C)[C@H]1C(=O)C(C(=O)NCN2CCCC2)=C(O)[C@]2(O)C(=O)C3=C(O)c4c(O)cccc4[C@](C)(O)[C@H]3C[C@H]12 -10.6% [at 11.4 µM] (inactive)

Note to self: activity, negative = inhibition recorded for CN(CCC(=O)O)S(=O)(=O)c1ccccc1 was 4.74% [at 11.4 µM] (inactive)

O=C(O)[C@@H]1[C@@H](C(=O)Nc2ccccc2)[C@@H]2C=C[C@@H]1O2 has a reported activity, negative = inhibition of 2.5% [at 11.4 µM] (inactive)

###

- target.system: Cytochrome P450 2D6 (Homo sapiens)
- assay.text: Cytochrome panel assay with activity outcomes
- condition.summary: recombinant CYP, pro-luciferin dealkylation, luminescence, p450-cyp2d6; series mostly up to 57.1 µM
Hit rate of the full screen: of about 16,000 compounds, about 2,600 (16%) were called active. Another 20% or so got no clear call; they are omitted. The call rests on the fitted dose curve; in most records, active means well fitted curve in the direction sought with a large enough effect; inconclusive means small, poorly fitted or top-dose-only effect, or effect the other way; inactive means no such curve, though single readings can be large or run the other way. Only a sample is shown.
Hello, when you answer, please use one of the following outcomes: active, inactive

compound	target.system	cat
O=C(c1cc(Cl)c(=O)n(Cc2ccc(Cl)cc2)c1)N1CCOCC1	Cytochrome P450 2D6 (Homo sapiens)	inactive

Problem: Lab log entry: Cc1ccc(NCCC(=O)c2ccc(Cl)c(Cl)c2)cc1 — outcome as called in the assay?
Result: inactive

Problem: Could you kindly confirm the outcome this assay logged for O=c1ccc(NS(=O)(=O)c2ccccc2)cn1Cc1ccc(Cl)c(Cl)c1 ?
Result: active

Problem: So what was the verdict on Cc1cc(NS(=O)(=O)c2ccc(NC(=O)CN3C(=O)c4ccccc4C3=O)cc2)nc(C)n1 in this test?
Result: inactive

###

- target.system: Cytochrome P450 2D6 (Homo sapiens)
- assay.text: Cytochrome panel assay with activity outcomes
- condition.summary: recombinant CYP, pro-luciferin dealkylation, luminescence, p450-cyp2d6; series mostly up to 57.1 µM
The campaign covered roughly 16,000 compounds. About 2,600 (16%) were called active. Roughly 20% stayed inconclusive and do not appear here. Calls follow the shape of the dose curve; as a rule, active = well fitted curve in the direction sought with a large enough effect; inconclusive = small, poorly fitted or top-dose-only effect, or effect the other way; inactive = no such curve, though single readings can be large or run the other way. The list is a sample of the results.
Hello, when you answer, please use one of the following outcomes: True (active), False (inactive)

// known answers, use as guide
compound	target.system	cat
CSc1ccc(CNc2ccc(C)c(C)c2)cc1	Cytochrome P450 2D6 (Homo sapiens)	True
CN1C(=O)CC[C@@H]1c1cccnc1	Cytochrome P450 2D6 (Homo sapiens)	False
CN(NC(=O)NN)c1ncc(C(F)(F)F)cc1Cl	Cytochrome P450 2D6 (Homo sapiens)	False
CN(Cc1ccccc1)S(=O)(=O)c1ccc(OCC(=O)N2CCOCC2)cc1	Cytochrome P450 2D6 (Homo sapiens)	False
O=C(Nc1ccccn1)c1ccco1	Cytochrome P450 2D6 (Homo sapiens)	False
FC(F)(F)c1ccccc1-c1nc(NC2CCNCC2)c2ccccc2n1	Cytochrome P450 2D6 (Homo sapiens)	False

Problem: Identify the outcome logged in this assay for the compound shown: CCCC1(C(=O)OC)C=C2C(=C(C)C(=O)C2C)CN1 (configuration not stated)
Result: False

Problem: Returns: the outcome recorded for CCN(CC)c1nc(Nc2ccccc2)nc(Oc2ccc(C(=O)OC)cc2)n1 in this assay.
Result: False

Problem: What was the test verdict on Cc1nc(SCC(=O)Nc2c(C)nn(C)c2C)c2cnn(-c3ccccc3)c2n1 ?
Result: False

Problem: How was Clc1cccc(Cl)c1NC1=NCCN1 classified in this test?
Result: True

Problem: Could you check what this test reported for CCc1ccc(OCC(=O)NNC(=O)CSc2ncnc3sc(C)c(C)c23)cc1 ?
Result: False

Problem: Could you kindly confirm the outcome this assay logged for COC(=O)C1(Cc2ccccc2)C=C2C(=C(C(C)C)C(=O)C2C)CN1 (configuration not stated) ?
Result: True

Problem: Please let me know the test result on file for COC(=O)C1(CC(C)C)C=C2C(=C(c3ccccc3)C(=O)C2C)CN1 (configuration not stated) .
Result: False

Problem: Hi, sorry to bother you, what did the test record for CC(C)CCNC(=O)Cc1ccccc1[N+](=O)[O-] ?
Result: False

Problem: Please state the recorded outcome for this compound: Cc1cc(C(F)F)n2nc(C(=O)Nc3cccnc3Cl)nc2n1
Result: False

Problem: How did this test come out for CCOC(=O)c1sc2nc(CC(=O)OC)nc(NCc3ccc(F)cc3)c2c1C ?
Result: True

Problem: Write down the call the test reported for this compound. Item: CN(C)C(=O)CSC1c2ccccc2C(=O)N1c1ccccc1 (configuration not stated)
Result: False

###

- target.system: Cytochrome P450 2D6 (Homo sapiens)
- assay.text: Cytochrome panel assay with activity outcomes
- condition.summary: recombinant CYP, pro-luciferin dealkylation, luminescence, p450-cyp2d6; series mostly up to 57.1 µM
In all, about 16,000 compounds went through this assay and about 2,600 (16%) were called active. Roughly 20% stayed inconclusive and do not appear here. The call rests on the fitted dose curve; in most records, active means well fitted curve in the direction sought with a large enough effect; inconclusive means small, poorly fitted or top-dose-only effect, or effect the other way; inactive means no such curve, though single readings can be large or run the other way. Only a sample is shown.
Would you mind answering with one of these outcomes? class 1 = active, class 0 = inactive

compound	target.system	cat
CN[C@@H]1[C@H](O[C@H]2[C@@H](O[C@@H]3[C@@H](O)[C@@H](O)[C@@H](N=C(N)N)[C@@H](O)[C@@H]3N=C(N)N)O[C@@H](C)[C@]2(O)CO)O[C@H](CO)[C@@H](O)[C@@H]1O	Cytochrome P450 2D6 (Homo sapiens)	class 0
COc1ccc(/C(C#N)=C/c2c(-c3ccc(Cl)cc3)nc3c(C)cccn23)cc1	Cytochrome P450 2D6 (Homo sapiens)	class 0
CCCCn1c(=N)n(CC(=O)c2ccco2)c2ccccc21	Cytochrome P450 2D6 (Homo sapiens)	class 1

Now look at this entry.
Problem: Any idea what this test logged for CCCCN1C(=O)NC(NC(=O)c2ccco2)(C(F)(F)F)C1=O (centres undefined) ?
Result: class 0
